The values you see were collected from ChEMBL document CHEMBL4513216.

test: Toxicity liver stage against HepG2, at 10uM; type: cell-based; set-up: test concentration 10 uM, cell line HepG2-A16-CD81EGFP; details: human, HepG2-A16-CD81EGFP cells; read-out: INHIBITION
Listed next: entries and their corresponding cytotoxicity at 10 µM.
The figure you give is taken to be in %; do not add the unit.

COCCNC(=O)Cc1cnc(-n2cccc2)s1; -3.35
CC(C)c1noc(C(C)N2CCN(CCCN3CCCC3=O)CC2)n1 (configuration not stated); -14.3

Please look up its cytotoxicity at 10 µM: `CN(C)CCNC(=O)c1cc(-c2cnc(N(C)C)nc2)cn1CC1CC1` -5.81

Please look up its cytotoxicity at 10 µM: `CC(=O)N1CCC(C(=O)c2cc(C)cnc2N)CC1` -0.0531

Please look up its cytotoxicity at 10 µM: `CC(=O)NCc1noc2c1CN(Cc1cnn(C)c1)CC2` -1.71

Please look up its cytotoxicity at 10 µM: `CN(C)C(=O)COC[C@H]1CC[C@@H]2[C@@H](CCN2Cc2ccccn2)O1` -18.7

Please look up its cytotoxicity at 10 µM: `CCn1cc(CN(C)S(=O)(=O)c2cnn(CC)c2C)c(C)n1` 3.13

Please look up its cytotoxicity at 10 µM: `COCc1ccccc1NC(=O)CCNC(=O)c1ccoc1` -3.94

Please look up its cytotoxicity at 10 µM: Cc1cc(C)n(CC2CCCCN2CC(=O)Nc2nnc(C)s2)n1 (configuration not stated) 0.668

Please look up its cytotoxicity at 10 µM: CCN(CC1CCCO1)C(=O)NCCNC(=O)c1ccccc1F (configuration not stated) 5.63

Please look up its cytotoxicity at 10 µM: `CC(C)(C)C(=O)N[C@H]1CC[C@H](Nc2nccc(-c3ccncc3)n2)C1` 5.05

Please look up its cytotoxicity at 10 µM: `CCc1ncc2c(n1)CN(Cc1nc(-c3ccsc3)oc1C)CC2` -8.6

----------
test: Toxicity liver stage against HepG2, at 10uM; type: cell-based; design: test concentration 10 uM, cell line HepG2-A16-CD81EGFP; settings: human, HepG2-A16-CD81EGFP cells; read-out: INHIBITION
measurement_type: cytotoxicity at 10 µM
Quick note: number first, unit second.

Solved cases below.
Cc1nc(NCc2nccn2C)cc(C2COCCN2)n1 (stereo unspecified); 5.32%
O=C(Nc1cnn(CCN2CCOCC2)c1)c1ccccc1Cl; -5.81%
CCOc1ccc(Cl)c(C(=O)NCCC(=O)Nc2ccccn2)n1; -3.13%
O=C(c1ccccn1)N1CCC(Cc2cnc3[nH]ccc3c2)CC1; -7.75%
Cn1cc(C2CCCN2C(=O)COCCc2ccccc2)cn1 (stereo unspecified); -2.87%

Please look up its cytotoxicity at 10 µM: `CCN(C)S(=O)(=O)N[C@H]1CN(c2ccc(F)cn2)C[C@@H]1C(C)C` 10.8%

Please look up its cytotoxicity at 10 µM: CNC(=O)CCc1cc(C)nc(C2CCCN2)n1 (stereo unspecified) 1.77%

----------
Listed next: entries and their corresponding cytotoxicity at 10 µM.
test: Toxicity liver stage against HepG2, at 10uM; type: cell-based; design: test concentration 10 uM, cell line HepG2-A16-CD81EGFP; conditions: human, HepG2-A16-CD81EGFP cells; read-out: INHIBITION

Solved cases below.
COc1ccc(CCCC(=O)NCc2c(C)noc2C)cc1F; -6.35%
Cn1ccnc1CN1C(=O)CO[C@H]2CN(Cc3ccccc3O)C[C@H]21; 4.22%
CN(C)c1ncccc1CNS(=O)(=O)c1ccccc1Cl; -15.3%
c1cc(-c2cnccn2)cc(-c2ccn(CCCN3CCCCC3)n2)c1; -2.15%

Please look up its cytotoxicity at 10 µM: `Cc1ccccc1C(=O)Nc1ccc([C@H]2OCC(=O)N(C)[C@@H]2CO)cc1` 0.461%

Please look up its cytotoxicity at 10 µM: CCn1cnc(NC(=O)N2CCCC(c3ccccc3)CC2)n1 (centres undefined) 2.7%

Please look up its cytotoxicity at 10 µM: `CN(C)C(=O)NCC(=O)N(C)Cc1cc(-c2ccccc2)no1` 1.14%

Please look up its cytotoxicity at 10 µM: Cc1cccc(C(C)CNS(=O)(=O)CCCC#N)c1 (centres undefined) -2.17%

----------
assay: Toxicity liver stage against HepG2, at 10uM; format: cell-based; design: test concentration 10 uM, cell line HepG2-A16-CD81EGFP; conditions: human, HepG2-A16-CD81EGFP cells; read-out: INHIBITION
Listed next: entries and their corresponding cytotoxicity at 10 µM.
Quick note: number first, unit second.

Please look up its cytotoxicity at 10 µM: COc1cccc(C(=O)N2CCCCC2c2nccs2)c1OC (stereo unspecified) -14.4%

Please look up its cytotoxicity at 10 µM: `Cc1ccc(C(=O)N2C[C@@H]3CN(c4ncccn4)C[C@@H]3C2)cn1` 6.86%

----------
Listed next: entries and their corresponding cytotoxicity at 10 µM.
experiment: Toxicity liver stage against HepG2, at 10uM; assay type: cell-based; set-up: test concentration 10 uM, cell line HepG2-A16-CD81EGFP; conditions: human, HepG2-A16-CD81EGFP cells; read-out: INHIBITION
Quick note: number first, unit second.

Please look up its cytotoxicity at 10 µM: OC(CNCc1ccccc1C(F)(F)F)c1ccccc1 (stereo unspecified) -4.63%

Please look up its cytotoxicity at 10 µM: `O=C(c1ccc2c(c1)COC2)N1CCC(Nc2cccnn2)CC1` -13.1%

Please look up its cytotoxicity at 10 µM: `Cc1cccc2nc(C(=O)N3CCC4(CCC(=O)N(C)C4)CC3)c(F)n12` -0.103%

----------
assay: Toxicity liver stage against HepG2, at 10uM; assay type: cell-based; design: test concentration 10 uM, cell line HepG2-A16-CD81EGFP; conditions: human, HepG2-A16-CD81EGFP cells; read-out: INHIBITION
Listed next: entries and their corresponding cytotoxicity at 10 µM.
The figure you give is taken to be in %; do not add the unit.

Solved cases below.
COCCCN1C(=O)CC[C@H]2CN(c3cc(C(N)=O)ccn3)CC[C@H]21; 4.12
NCc1cnn(-c2ccccc2C(=O)N2CCCC(C(N)=O)C2)c1 (stereo unspecified); 1.2
COc1ccc(C(=O)NCC2CCCN(C3CCOCC3)C2)c(O)c1 (stereo unspecified); 5.21
CN(C)CCNC(=O)c1cc2n(n1)CCN(C(=O)c1ccc[nH]1)C2; 2.58
Cc1cnc(CC2COCCN(C(=O)c3cncnc3)C2)cn1 (stereo unspecified); 0.187

Please look up its cytotoxicity at 10 µM: `CC(C)CN1CCc2[nH]cnc2C12CCN(C(=O)c1cccnc1)CC2` 23.4

Please look up its cytotoxicity at 10 µM: CN(C)CC1COCCN1C(=O)C1(c2cccs2)CCCC1 (stereo unspecified) -9.52

Please look up its cytotoxicity at 10 µM: `CC(C)c1nnc2n1CCN(CCC(=O)Nc1sccc1C#N)C2` -25.8

Please look up its cytotoxicity at 10 µM: c1cnnc(N2CCCC(NCc3ccc(-n4cncn4)cc3)C2)c1 (stereo unspecified) -3.14

Please look up its cytotoxicity at 10 µM: CC(C)c1nc(CN(C)C2CCN(CCc3ccncc3)C2)no1 (stereo unspecified) -28.4

Please look up its cytotoxicity at 10 µM: `COc1cccc(OC)c1-c1ccnc2cc(CC(=O)NC3CC3)nn12` -2.67

----------
assay: Toxicity liver stage against HepG2, at 10uM; type: cell-based; design: test concentration 10 uM, cell line HepG2-A16-CD81EGFP; settings: human, HepG2-A16-CD81EGFP cells; read-out: INHIBITION
measurement_type: cytotoxicity at 10 µM (%)
The figure you give is taken to be in %; do not add the unit.

Solved cases below.
COc1cccc(CNC2CCSC2)c1OC (stereo not drawn); 2.25
CNC(=O)NC(=O)C(C)N1CCC(c2c[nH]c3ccc(OC)cc23)CC1 (stereo not drawn); 12.5
O=C(c1ccc(Cl)cc1)N1CC2(CCNC2)OCc2ccccc21 (stereo not drawn); 9.9
CC(C)C(=O)NS(=O)(=O)CCc1ccccc1; 0.67
O=c1[nH]c2c(-c3ccccn3)nsc2c(=O)n1CC1CC1; 36.2
c1ccc(N2CCC3(COCCN(Cc4cccs4)C3)C2)nc1 (stereo not drawn); 1.85
Cc1cccc(-c2nc(CN3CCCCC3Cn3cncn3)no2)c1 (stereo not drawn); -3.2
Cc1noc(C)c1S(=O)(=O)NCC(C)(O)c1ccc2c(c1)OCO2 (stereo not drawn); 0.331
CCOc1cccc(C(=O)N2CCC3(CC2)[C@H](O)C[C@@H]3OC)c1; 2.01
COc1ncc(NCc2cccc(C#N)c2)cc1C(N)=O; 5.85

Please look up its cytotoxicity at 10 µM: `CC(C)CNC(=O)c1c(-n2cnnn2)sc2c1CCC2` -4.56

Please look up its cytotoxicity at 10 µM: CN(Cc1csc2ccccc12)C(=O)NC1CCS(=O)(=O)C1 (stereo not drawn) -42.1

Please look up its cytotoxicity at 10 µM: CC(=O)Nc1nc(CN2CCCCC2Cn2cncn2)cs1 (stereo not drawn) 1.12
